Target: Plasma kallikrein (Homo sapiens)
Sequence (P03952 20-390 limits assumed): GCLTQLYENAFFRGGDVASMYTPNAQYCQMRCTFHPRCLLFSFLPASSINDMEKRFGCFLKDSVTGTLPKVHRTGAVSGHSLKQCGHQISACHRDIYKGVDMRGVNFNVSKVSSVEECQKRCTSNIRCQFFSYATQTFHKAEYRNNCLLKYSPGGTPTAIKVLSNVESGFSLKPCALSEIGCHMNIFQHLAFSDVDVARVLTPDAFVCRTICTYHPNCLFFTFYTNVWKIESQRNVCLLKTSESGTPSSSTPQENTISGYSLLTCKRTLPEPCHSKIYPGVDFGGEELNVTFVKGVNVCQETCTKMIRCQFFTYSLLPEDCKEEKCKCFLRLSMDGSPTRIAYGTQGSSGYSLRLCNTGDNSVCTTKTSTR
Sequence (P03952 391-638 limits assumed): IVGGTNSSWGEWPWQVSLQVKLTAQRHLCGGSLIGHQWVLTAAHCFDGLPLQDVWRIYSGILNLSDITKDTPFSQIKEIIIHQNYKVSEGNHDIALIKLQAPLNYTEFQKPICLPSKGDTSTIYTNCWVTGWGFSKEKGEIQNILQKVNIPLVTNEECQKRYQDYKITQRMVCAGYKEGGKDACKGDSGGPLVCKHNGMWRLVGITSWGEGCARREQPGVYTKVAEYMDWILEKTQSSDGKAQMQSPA
Assay: In Vitro Enzyme Inhibition of hPK
Details: pH 7.5
pIC50: −log10 of the molar value.
quantityName: pIC50

pIC50 for Cc1nc(N)ccc1CNC(=O)c1ccnc(CC2=CC3C=C(Cl)C=NC3C=C2)c1 (stereo unspecified) [US10023557, Example 39] ? > 7.00
